- Test system: OVCAR-3 ovarian
- ASSAY METHOD TEXT: NCI tumour cell line growth inhibition, 48 h; in the data active = GI50 below about 0.43 µM; inactive = the rest
Classes used: label 1 = active, label 0 = inactive

CCSc1sc(-c2ccc(C)cc2)nc1[P+](c1ccccc1)(c1ccccc1)c1ccccc1 = label 1
O=C(NCCc1ccccc1)C(c1csc2ccccc12)N(C(=O)CCl)c1ccc(-c2cnco2)cc1 (stereo not drawn) = label 1
COc1cc(Oc2cnc3cc(N)cc(N)c3n2)cc(OC)c1OC = label 0
CC([C@H]1CCC2C3CCC4C(=O)C(NC=O)=CC[C@]4(C)C3CC[C@@]21C)N(C)C (stereo partly drawn) = label 0
CC(C)=CCNc1ncnc2c1ncn2C1OC(COP(=O)(O)O)C(O)C1O (stereo not drawn) = label 0
CCCCC#Cc1c(I)n(C2OC(CO[Si](C)(C)C(C)(C)C)C3OC(C)(C)OC32)c(=O)[nH]c1=O (stereo not drawn) = label 0
Cc1cc(C)c2nc(Nc3nc(C)c(C)c(=O)[nH]3)nc(C)c2c1 = label 0
N=C(N)c1ccc(-c2ccc(-c3ccco3)o2)cc1 = label 0
N#CC1=C(N)Oc2c(sc3c(F)cccc23)C1c1ccc(Cl)cc1 (stereo not drawn) = label 0
COc1cc(C2CC(c3ccc(C)cc3)=NN2C(C)=O)ccc1Oc1ccnc2cc(Cl)ccc12 (stereo not drawn) = label 0
O=c1cc(N2CCOCC2)oc2c(-c3ccccc3)cccc12 = label 0
COc1ccc(CNCCN2C(=O)c3ccc4c5c(ccc(c35)C2=O)C(=O)N(CCNCc2ccc(OC)cc2)C4=O)cc1 = label 1
Nc1ccc(Cl)cc1.Nc1ccc(Cl)cc1.Nc1ccc(Cl)cc1.O=C([O-])C(=O)[O-].O=C([O-])C(=O)[O-].[H+].[Ru+5] = label 0

* * *

- Tested on: NCI-H23 lung
- ASSAY METHOD TEXT: NCI tumour cell line growth inhibition, 48 h; in the data active = GI50 below about 0.43 µM; inactive = the rest
Possible outcomes: active, inactive

O=C1/C(=C/c2ccc(F)cc2)CN(Cc2cn(CCNc3ccnc4cc(Cl)ccc34)nn2)C/C1=C\c1ccc(F)cc1 = inactive
CC(C)=CCNc1ncnc2c1ncn2C1OC(COP(=O)(O)O)C(O)C1O (stereo not drawn) = inactive
O=c1cc(N2CCOCC2)oc2c(-c3ccccc3)cccc12 = inactive
CC([C@H]1CCC2C3CCC4C(=O)C(NC=O)=CC[C@]4(C)C3CC[C@@]21C)N(C)C (stereo partly drawn) = inactive
CCCCCCCC(=O)SCC/C=C/[C@@H]1CC(=O)NCc2cccc(n2)CN(Cc2ccc(Cl)cc2)CC(=O)N[C@@H](C(C)C)C(=O)O1 = inactive
COc1cc(C2C3=C(COC3=O)N(CCO)c3cc4c(cc32)OCCO4)cc(OC)c1O (stereo not drawn) = inactive
Cc1c(Br)cccc1NC(=O)c1sc2nc3c(cc2c1N)CN(Cc1ccccc1)CC3 = active
Oc1ccc(Br)cc1CN1CCN(Cc2ccc(Cl)cc2)CC1 = inactive

* * *

- Tested on: RXF 393 renal
- ASSAY METHOD TEXT: NCI tumour cell line growth inhibition, 48 h
Where a SMILES comes first, the peptide text is derived from it. [ ]: non-standard residue; d: D form. The star is where a group is joined. ξ: configuration not given here. 4Abz = Nc1ccc(C(=O)O)cc1; ξL = CC(C)CC(N)C(=O)O; NHOH = ON*
PARAMETER MEASURED: TGI

Cc1cccc2c1NC(c1c(C)[nH]c3ccccc13)C2 (stereo unspecified) = > 100 µM
Nc1nc(Cl)cc2c1ncn2C1OC(CO)C(O)C1O (stereo unspecified) = > 100 µM
COC(=O)[C@@]12CC3CN(Cc4c1[nH]c1ccccc41)C2CC3=O = > 100 µM
C[N+](C)(C)CC(=O)NC(=O)N/N=C\C(CC#N)CN(Cc1ccccc1)Cc1ccccc1 (stereo unspecified) = > 100 µM
COc1ccc(-n2cc(-c3ccc(Cl)cc3)[nH]c2=S)cc1Cl = 54.1 µM
O=C(O)CC(Cc1ccccc1)C(=O)O (stereo unspecified) = > 100 µM
CC(C)CC(NC(=O)[C@@H]1CCCN1C(=O)CNC(=O)c1ccc(N)cc1)C(=O)N[C@H](C)C(=O)NO (stereo partly specified) (H-[4Abz]GP[ξL][dA]-{NHOH}) = > 100 µM
CCSc1sc(-c2ccc(C)cc2)nc1[P+](c1ccccc1)(c1ccccc1)c1ccccc1 = 1.23 µM
CCOC(=O)C(NC(=O)Nc1ccccc1)(Nc1cccc(Cl)c1)C(F)(F)F (stereo unspecified) = > 100 µM
O=c1c2ccccc2oc2nccnc12 = > 100 µM
COC(=O)C1=C(O)C(C(=O)OC)[C@@]2(O)[C@@H](C(=O)OC)C(c3ccccc3C(F)(F)F)C[C@@H]1[C@@H]2C(=O)OC (stereo partly specified) = 7.65 µM
Cc1cc(C)c2c(=O)n(CC(O)CN3CCN(c4ncccn4)CC3)sc2n1 (stereo unspecified) = 33.6 µM
COc1cc(C2C3=C(COC3=O)N(CCO)c3cc4c(cc32)OCCO4)cc(OC)c1O (stereo unspecified) = > 50 µM
CCCCC(=O)Nc1ccc2cc(C(=O)OC)c(=O)[nH]c2n1 = > 100 µM
COc1ccc(/C=N/N=C(N)N)c(C(=O)O)c1OC = > 100 µM
Cc1cc(C)cc(NC(=O)CCC(=O)C2CCC/C2=N\NC(=O)C(=O)NN)c1 (stereo unspecified) = > 100 µM
O=C(NCCc1ccc(F)cc1)c1cc(/C=C/c2cc(O)ccc2O)ccc1O = 4.4 µM
CC(CCC(=O)O)(c1cc(Br)c(O)c(Br)c1)c1cc(Br)c(O)c(Br)c1 = > 100 µM
CCNc1nc2ccccc2nc1NCC = > 100 µM
O=c1[nH]/c(=C/c2cccs2)c(=O)[nH]/c1=C/c1ccc(OCc2ccccc2)cn1 = 3.88 µM
CS(=O)(=O)c1ccc(C2=C(c3ccccc3)C(=O)OC2)cc1 = > 100 µM

* * *

Recorded measurements of TGI, one per entry
- Test system: OVCAR-8 ovarian
- ASSAY METHOD TEXT: NCI tumour cell line growth inhibition, 48 h
PARAMETER MEASURED: TGI (µM)

Nc1c2c(nc3ccccc13)-c1ccccc1CCC2 = 29.1
Cc1cc(CC(O)(C(F)(F)F)C(F)(F)F)cc(CC(O)(C(F)(F)F)C(F)(F)F)n1 = 12.4
COC1=CC(=O)c2c(O)c3c(c(O)c2C1=O)CC(C)(O)OC3 (centres undefined) = 8.65
O=C(N/C(=C\c1cc(Cl)ccc1Cl)c1nc2ccccc2[nH]1)c1ccccc1 = 46.9
COC(=O)C1=C(O)C(C(=O)OC)[C@@]2(O)[C@@H](C(=O)OC)C(c3ccccc3C(F)(F)F)C[C@@H]1[C@@H]2C(=O)OC (some centres undefined) = 24.5
NC(=O)NC1=NCCC(=O)N1CCc1c[nH]c2ccccc12 = 32.2

* * *

Listing of entries alongside the reported TGI.
- Tested on: NCI-H226 lung
- ASSAY METHOD TEXT: NCI tumour cell line growth inhibition, 48 h
PARAMETER MEASURED: TGI

CCOc1cccc2cccnc12 = > 100 µM
CCCCCCCCOCC(O)COC (configuration not stated) = > 100 µM
c1ccc2c3c(c(N4CCNCC4)nc2c1)CCCC3 = 29.6 µM
CN(C)CCNc1ccccn1 = > 100 µM
O=C1N2CCN=C2c2ccccc2C1(O)c1ccccc1 (configuration not stated) = > 100 µM
COc1cc(CNc2nc3cc(C(F)(F)F)ccc3nc2C(=O)O)cc(OC)c1OC = > 100 µM
Cc1cc2nc(N)n[n+]([O-])c2cc1C = > 100 µM
COC1=CC(=O)c2c(O)c3c(c(O)c2C1=O)CC(C)(O)OC3 (configuration not stated) = 37.2 µM
O=C1OS2(OC(=O)c3cccc4cccc2c34)c2ccccc21 (configuration not stated) = > 100 µM
CSCC[C@@H](NC(=O)[C@H](CC(C)C)NC(=O)C(Cc1cnc[nH]1)NC(=O)CNC(=O)[C@@H](NC(=O)[C@H](C)NC(=O)[C@H](Cc1cn(C=O)c2ccccc12)NC(=O)[C@H](CCC(N)=O)NC(=O)[C@@H](N)CC(N)=O)C(C)C)C(N)=O (some centres not stated) = > 100 µM
Brc1ccc2c(c1)[C@H]1CCc3c([nH]c4ccccc34)[C@H]1N2 = 28.4 µM
COc1ccc(NC(=O)c2cc(NC(=O)/C=C/c3ccccc3)c(OC)c(OC)c2)cc1 = > 100 µM
O=C1CCCc2ccc3c(c21)CC1(Cc2cc4c(cc2C1)CCCC4)C3 = 93.3 µM
Cc1cc(C)c(-c2noc(-c3ccc(Cl)cc3)c2C2=NCCN2)c(C)c1 = 68.3 µM
N#CCCN(CCN(CCN(C(=O)Nc1ccccc1)c1ccccc1)C(=O)Nc1ccccc1)C(=O)Nc1ccccc1 = > 100 µM
Nc1nc(-c2ccccc2)cc(-c2ccc(F)cc2)c1-c1ccc(Cl)cc1 = > 100 µM
COC1=C(C(=O)OC(C)(C)C)C23CCCCC2(C(C(=O)OC(C)(C)C)=C(OC)C3C(=O)OC(C)(C)C)C1C(=O)OC(C)(C)C (configuration not stated) = > 100 µM
COc1ccc(/C=C/C=C2C(=O)NC(=S)NC2=O)cc1 = 44.6 µM
NS(=O)(=O)OC[C@H]1O[C@@H](n2cnc3c(N[C@H]4CCc5ccccc54)ncnc32)[C@H](O)[C@@H]1O = 0.0863 µM
O=C(c1ccc(Cl)cc1)N(C(=S)N1CCN(c2ccccc2)CC1)C1CCCCC1 = 20.8 µM
S=c1sc2ccccc2n1CN1CCN(Cc2ccccc2)CC1 = > 100 µM
C=C1c2c(C)nn(-c3ccccc3)c2N(C)C23C[C@@H]1C1(C)c4c(C)nn(-c5ccccc5)c4N(C)C(C)(C[C@H]12)C3 (some centres not stated) = > 100 µM

The measurements presented in this section are drawn from PubChem BioAssay (NCI).
